- Tested on: UO-31 renal
- Experimental details: NCI-60 one-dose screen, 48 h
- Stated conditions: 10 µM unless noted
The panel holds about 83,000 compounds, 20% with a hit somewhere; the sample as a whole holds those more often. Activity calls are given as the source filed them. The calls were made as follows: active = growth percent below 10; inactive = the rest.
Outcomes: active, inactive

| Compound | Test target | Class label |
| --- | --- | --- |
| CNC(=O)CN1CCC(Oc2cc3c(Nc4cccc(Cl)c4F)ncnc3cc2OC)CC1 | UO-31 renal | inactive |
| c1cn2cc(-c3ccc4cn[nH]c4c3)nc(Nc3ccc(N4CCOCC4)cc3)c2n1 | UO-31 renal | inactive |
| C#Cc1cccc(Nc2ncnc3cc4c(cc23)OCCOCCOCCO4)c1 | UO-31 renal | inactive |
| COc1cc2nc(Nc3cccc(Cl)c3)nc(N)c2cc1OC | UO-31 renal | inactive |
| CNS(=O)(=O)Nc1nccc(Cc2c(C)c3ccc(Oc4ncccn4)cc3oc2=O)c1F | UO-31 renal | inactive |
| CC(C)C1CCC(C)C(C2(C#N)C(N)=NC(N)=C2C#N)C1=O (stereo unspecified) | UO-31 renal | inactive |
| OCCNC(=S)Nc1ccc(-c2nc(N3C[C@H]4CC[C@@H](C3)O4)c3cccn3n2)cc1 | UO-31 renal | active |
| CC1(/C=N/NC(N)=S)NC(=O)NC1=O (stereo unspecified) | UO-31 renal | inactive |
| Cc1c(NC(=O)OC[C@@H]2COCCN2)cn2ncnc(Nc3ccc4c(cnn4Cc4cccc(F)c4)c3)c12 | UO-31 renal | active |
| CC(C)(C)c1cnc(CSc2cnc(NC(=O)C3CCNCC3)s2)o1 | UO-31 renal | active |
| COc1cnc2c(c1)C(=O)c1c-2n(CCCN2CCOCC2)c(=O)c2cc(Cl)ccc12 | UO-31 renal | inactive |
| N#CC1(C#N)C(c2cccs2)NC(c2cccs2)C1(C#N)C#N (stereo unspecified) | UO-31 renal | inactive |
| CC(C)=CCc1cc2c(cc1O)C1=C(C(=O)C3=C(NCCS3(=O)=O)C1=O)C(C=C(C)C)O2 (stereo unspecified) | UO-31 renal | inactive |
| Cc1ccsc1C(NC(=O)c1ccccc1)c1cc(Cl)c2cccnc2c1O (stereo unspecified) | UO-31 renal | active |
| COC(=O)[C@]12CC[C@@H](C)[C@H](C)[C@@H]1C1=CC[C@@H]3[C@@]4(C)C[C@@H](OC(=O)/C=C/c5ccccc5)[C@H](O)[C@@](C)(CO)[C@@H]4[C@H](O)C[C@@]3(C)[C@]1(C)CC2 | UO-31 renal | inactive |
| CO[C@H]1C[C@@H]2CC[C@@H](C)[C@@](O)(O2)C(=O)C(=O)N2CCCC[C@H]2C(=O)O[C@H]([C@H](C)C[C@@H]2CC[C@@H](OP(C)(C)=O)[C@H](OC)C2)CC(=O)[C@H](C)/C=C(\C)[C@@H](O)[C@@H](OC)C(=O)[C@H](C)C[C@H](C)\C=C/C=C/C=C/1C | UO-31 renal | inactive |
| COc1c(OCCCN2CCOCC2)ccc2c3n(c(=NC(=O)c4cnc(N)nc4)nc12)CCN3 | UO-31 renal | active |
| Cc1cn(-c2cc(NC(=O)c3ccc(C)c(Nc4nccc(-c5cccnc5)n4)c3)cc(C(F)(F)F)c2)cn1 | UO-31 renal | active |
| CCN(CC)Cc1cc(Nc2cc(C(F)(F)F)c(C#N)c3nc4ccccc4n23)ccc1O | UO-31 renal | active |
| Cc1ccc(F)c(NC(=O)Nc2ccc(-c3cccc4[nH]nc(N)c34)cc2)c1 | UO-31 renal | inactive |
| Cc1ccc(NC(=O)NC(=O)CSc2nc3ccccc3nc2C)cc1 | UO-31 renal | inactive |
| C=CC(=O)N1CCC[C@H](n2c(=O)n(-c3ccc(Oc4ccccc4)cc3)c3c(N)ncnc32)C1 | UO-31 renal | inactive |
| CN1CCN(CCOc2cc(OC3CCOCC3)c3c(Nc4c(Cl)ccc5c4OCO5)ncnc3c2)CC1 | UO-31 renal | inactive |
| O=c1[nH]c(N2CCOCC2)nc2scc(-c3ccccc3)c12 | UO-31 renal | inactive |
| O=C(Cn1c(=O)ccn(CCCCCCCCOc2ccc(Br)cc2)c1=O)Nc1ccc(Oc2ccc(Cl)cc2)cc1 | UO-31 renal | inactive |
| CC(=O)Oc1ccccc1C(=O)N=C1[Se]CCN1C(=O)c1ccccc1OC(C)=O | UO-31 renal | active |
| Oc1ccc(C(c2ccc(O)cc2)C(Cl)(Cl)Cl)cc1 | UO-31 renal | inactive |
| C=C1[C@@H](O)C[C@H]2C(C)(C)C[C@H](Cl)C[C@]2(C)[C@H]1C[C@H](O)[C@H]1CC(=O)NC1=O | UO-31 renal | active |
| O=C(O)c1ccc2c(c1)nc(Nc1cccc(Cl)c1)c1ccncc12 | UO-31 renal | active |
| CN(C)C/C=C/C(=O)Nc1cc2c(Nc3ccc(F)c(Cl)c3)ncnc2cc1O[C@H]1CCOC1 | UO-31 renal | inactive |
| Cc1cc(Oc2ccccc2)ccc1Nc1ncnc2ccc(-c3cnc(Cl)c(NS(C)(=O)=O)c3)cc12 | UO-31 renal | active |
| CCOC(=O)C1=C(C)N=C2Sc3cc(OC(F)(F)F)ccc3N2[C@H]1c1ccccn1 | UO-31 renal | inactive |
| CCOc1ccc(N=C(C)Nc2ccc(OCC)cc2)cc1 | UO-31 renal | inactive |
| COc1cc(N2CCC(N(C)C)CC2)ccc1Nc1ncc(Cl)c(Nc2ccccc2P(C)(C)=O)n1 | UO-31 renal | active |
| Cc1ccc2oc(=O)cc(-c3cc(-c4cc5ccccc5oc4=O)nc(N)c3C#N)c2c1 | UO-31 renal | inactive |
| CC[C@@H]1C(=O)N(C)c2cnc(Nc3ccc(C(=O)NC4CCN(C)CC4)cc3OC)nc2N1C1CCCC1 | UO-31 renal | inactive |
